Molecular target: Mu-type opioid receptor (Cavia porcellus)
Conditions: 100 nM
outcomeMeasure: Ke (nM)
Please give a number only; it is taken to be in nM.

Some compounds with recorded Ke:
1) O=C1[C@@H]2Oc3c(O)ccc4c3[C@@]23CCN(CC2CC2)[C@H](C4)[C@]3(O)CC12Cc1ccccc1C2 | 4.2
2) Oc1ccc2c3c1O[C@H]1C4(CC[C@@]5(O)[C@@H](C2)N(CC2CC2)CC[C@]315)Oc1ccccc1O4 | 40
3) O=C1/C(=C/c2ccccc2)C[C@@]2(O)[C@H]3Cc4ccc(O)c5c4[C@@]2(CCN3CC2CC2)[C@H]1O5 | 8.3
4) Oc1ccc2c3c1O[C@H]1[C@@H](Nc4ccccc4)CC[C@@]4(O)[C@@H](C2)N(CC2CC2)CC[C@]314 | 3.2
5) O=C1[C@@H](Cc2ccccc2)C[C@@]2(O)[C@H]3Cc4ccc(O)c5c4[C@@]2(CCN3CC2CC2)[C@H]1O5 | 21

Let us examine a further case.
**Q:** Quickly give me recorded Ke for Oc1ccc2c3c1O[C@H]1[C@H](Nc4ccccc4)CC[C@@]4(O)[C@@H](C2)N(CC2CC2)CC[C@]314
**A:** 1.3

----------
Entries with their measured pKi, system Kappa-type opioid receptor (Cavia porcellus):
To interpret pKi, take it as minus log10 of a concentration measured in moles per litre.

For orientation, consider the following solved cases.
1. O=C1[C@@H](Cc2ccccc2)C[C@@]2(O)[C@H]3Cc4ccc(O)c5c4[C@@]2(CCN3CC2CC2)[C@H]1O5 | 7.60
2. Oc1ccc2c3c1O[C@H]1[C@@H](Nc4ccccc4)CC[C@@]4(O)[C@@H](C2)N(CC2CC2)CC[C@]314 | 8.66

**Q:** Look up and report measured pKi (Kappa-type opioid receptor (Cavia porcellus)) for the following compound: O=C1/C(=C\c2ccccc2)C[C@@]2(O)[C@H]3Cc4ccc(O)c5c4[C@@]2(CCN3CC2CC2)[C@H]1O5
**A:** 7.18
